Biological target: T1, recombinant murine MOG protein (murine, UniProt Q61885 29-156, limits assumed)
T1 construct: Bought recombinant protein; also called MMOG
T1 sequence (looked up): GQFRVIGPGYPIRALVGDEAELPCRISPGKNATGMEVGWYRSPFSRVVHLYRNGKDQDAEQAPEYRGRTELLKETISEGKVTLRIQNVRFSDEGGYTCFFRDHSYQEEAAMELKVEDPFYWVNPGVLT
Test: phage-scFv ELISA on coated recombinant murine MOG (0.5 µg/well), anti-M13 HRP, OD450 over BSA background
Give ratio OD on target/OD bdf for every item shown.
Numbers only, in ratio.

A selection of reference data follows.
>  <Binder>
anti-MOG MO3I-69 antibody (scFv, V domains shown) VH: DQVQLVQSGAEVKPGASVKVSCKASGYTFTYYYLHWVRQAPGQGLEWMGWINPNSGATIFAQKFQGRVTLTRDTSISTAYLDLSRLRSDDTAVYYCARASMAYQYHSDVDYWGLGTLVTVSS VL: QSVLTQPPSVSGAPGQRVTISCTGSSSNIGAGYDVHWYQQLPGTAPKLLIYGNSNRPSGVPDRFSGSKSGTSASLAITGLQAEDEADYYCQSYDSSLVVFGGGTKLTVL

>  <ratio OD on target/OD bdf, ratio>
2.76

$$$$
>  <Binder>
anti-MOG MO4H-04 antibody (scFv, V domains shown) VH: EVQLVQSGAEVKKPVASVKVSCKASGYTFTSYGISWVRQAPGQGLEWMGWISAYNGNTNYAQKLQGRVTMTTDTSTSTAYMELRSLRSDDTAVYYCARNMGCSSTSCFVSWFDPWGQGTLVTVSS VL: QSALTQPPSASGSPGQSVTISCTGTHSDVGSFDSVSWYQQHPDKAPKLIIYDVNKRPAGVPHRFSGSKSGNTASLTVSGLQSEDEADYYCNSYAGVDNFVFGTGTKVTVL

>  <ratio OD on target/OD bdf, ratio>
9.78

$$$$
>  <Binder>
anti-MOG MO3J-43 antibody (scFv, V domains shown) VH: EVQLVESGGGLVKPGGSLRLSCAASGFTFSDYYMSWIRQAPGKGLEWVSYISSSGNTIYYADSVKGRFTISRDNAKNSLYLQMNSLRAEDTAVYYCAKDSPVPTVWGQGTLVTVSS VL: QSVVTQPPSVSGAPGQRVSISCTGGSSNIGADYDVHWYQQLPGTAPKLLIYGNNNRPSGVPDRFSGSKSGTSASLAISGLQPEDEAVYYCQSYDSGLRSSVFGGGTKLTVL

>  <ratio OD on target/OD bdf, ratio>
8.26

$$$$
>  <Binder>
anti-MOG MO4H-03 antibody (scFv, V domains shown) VH: QVQLVQSGTEVKKPGASVKVSCKVSGYTLTELSMHWVRQAPGKGLEWMGGFDPEDGETIYAQKFQGRVTMTEDTSTDTAYMELSSLRSEDTAVYYCATGATGAFDIWGQGTTVTVSS VL: DIVMTQTPLSSPVTLGQPASISCRSSQSLVDSDGNTYLNWLQQRPGQPPRLLIYKISNRFSGVPDRFSGSGAGTEFTLKISRVEAEDVGVYYCMQATQFPHTFGQGTKLEIK

>  <ratio OD on target/OD bdf, ratio>
9.12

$$$$

Please turn your attention to the following entry.
*Q* Could you share which ratio OD on target/OD bdf value was measured for anti-MOG MO3I-30 antibody (scFv, V domains shown) VH: EVQLLESGGGLVQPGGSLRLSCVASGFTFRSYWMHWVRQDPGEGLVWVSRVSGDGSSTNYADSVKGRFVISRDNAKDTLYLQMYSLRGEDTAVYYCLRGNDGYGNFDYWGQGTTVTVSS VL: DVVMTQSPLSLPVTLGQPASISCRPSQSLVYSDGNTYLNWFQQRPGQSPRRLIYKVSNRDYVVPDRFSGSGSGTDFTLKISRVEAEDVGVYYCMQGTHWPLTFGGGTKVEIK ?
*A* 2.19
